# tested_on: human GPR84-Gαi2 fusion protein (Homo sapiens)
# Sequence (Q9NQS5 whole entry, the tested form may be a part): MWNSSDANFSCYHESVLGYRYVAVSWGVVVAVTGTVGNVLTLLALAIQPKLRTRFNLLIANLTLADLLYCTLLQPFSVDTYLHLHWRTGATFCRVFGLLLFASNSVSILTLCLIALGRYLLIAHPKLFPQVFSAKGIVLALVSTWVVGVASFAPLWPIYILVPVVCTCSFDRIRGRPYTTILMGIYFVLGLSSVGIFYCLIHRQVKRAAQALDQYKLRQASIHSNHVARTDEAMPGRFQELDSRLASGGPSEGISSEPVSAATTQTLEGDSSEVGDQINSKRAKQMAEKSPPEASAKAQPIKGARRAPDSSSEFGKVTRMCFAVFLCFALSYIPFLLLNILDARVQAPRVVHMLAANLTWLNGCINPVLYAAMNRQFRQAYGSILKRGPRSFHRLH
# assay_text: [3H]G9543 competition binding assay, membranes from Flp-In TREx 293 cells
# condition: competition with [3H]G9543; read-out: Kd (affinity for GPR84)
reported_property: Kd (nM)
Reply with just the number (in nM).

Form: compound = COc1cc2c(cc1C)-c1c(C)c(OC[C@@H]3COCCO3)cc(=O)n1CC2 [GLPG38] ; Kd = 11.8

meta.source: patent US20260091147A1
